targetSystem: TEM β-lactamase (Escherichia coli)
Sequence (P62593 24-286 limits assumed): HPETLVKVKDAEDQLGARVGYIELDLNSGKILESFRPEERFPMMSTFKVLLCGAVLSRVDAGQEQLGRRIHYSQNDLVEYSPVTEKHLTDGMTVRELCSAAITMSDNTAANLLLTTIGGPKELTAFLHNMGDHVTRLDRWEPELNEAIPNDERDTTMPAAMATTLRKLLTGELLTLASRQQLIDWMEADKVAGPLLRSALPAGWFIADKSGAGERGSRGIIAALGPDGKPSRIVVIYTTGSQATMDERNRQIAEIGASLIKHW
assayRemarks: biochemical
experimentalContext: Inhibition, (Ki, μM ± S.D.) [Zn]removed, zinc removed, EDTA 1 mM
measuredEndpoint: Ki

Enter Ki (test system TEM β-lactamase (Escherichia coli)) for `N=C(N)c1ccc2nc(Cc3nc4ccc(C(=N)N)cc4[nH]3)[nH]c2c1` > 1000 µM

###

targetSystem: human trypsin (Homo sapiens, UniProt P07477)
assayRemarks: In vitro enzyme inhibitor assay (Example 1), trypsin
Format: biochemical
experimentalContext: zinc removed, EDTA 1 mM, read-out: Inhibition, (Ki, μM ± S.D.) [Zn]removed
Overview of reported Ki across a group of compounds:

Fill in Ki for record O=C(O)c1ccc2nc(Cc3nc4ccccc4[nH]3)[nH]c2c1 [Compound 8] > 1000 µM

Fill in Ki for record N=C(N)c1ccc2nc(Cc3ncc[nH]3)[nH]c2c1 [Compound 6] > 1000 µM

Fill in Ki for record Cc1ccc2[nH]c(Cc3nc4cc(CN)ccc4[nH]3)nc2c1 [Compound 7] > 1000 µM

Fill in Ki for record N=C(N)c1ccc2nc(-c3ccccn3)[nH]c2c1 [Compound 10, 5-amidino-2-pyrid-2-ylbenzimidazole] 184 µM

Fill in Ki for record c1ccc(-c2nc3ccccc3[nH]2)nc1 [Compound 9, 2-pyrid-2-ylbenzimidazole, reference compound] > 1000 µM

Fill in Ki for record N=C(N)c1ccc2[nH]c(Cc3nc4ccccc4[nH]3)nc2c1 [Compound 4] 151 µM

###

targetSystem: tryptase (Homo sapiens, UniProt Q15661)
Sequence (Q15661 31-275): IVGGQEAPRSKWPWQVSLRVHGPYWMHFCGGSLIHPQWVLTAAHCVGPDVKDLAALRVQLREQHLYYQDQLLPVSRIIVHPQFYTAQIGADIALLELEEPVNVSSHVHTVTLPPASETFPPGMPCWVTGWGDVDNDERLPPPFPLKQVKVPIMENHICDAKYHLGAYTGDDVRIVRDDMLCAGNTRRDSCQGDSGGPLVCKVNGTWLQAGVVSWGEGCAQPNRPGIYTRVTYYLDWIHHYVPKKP
assayRemarks: In vitro enzyme inhibitor assay, tryptase
Format: biochemical
experimentalContext: ambient zinc, no EDTA, read-out: Inhibition, (Ki, μM ± S.D.) [Zn]ambient
measuredEndpoint: Ki (µM)
Numbers only here, please. The scale is µM.

Fill in Ki for record O=C(O)c1ccc2nc(Cc3nc4ccccc4[nH]3)[nH]c2c1 [Compound 8] 17

Fill in Ki for record Cc1ccc2[nH]c(Cc3nc4cc(CN)ccc4[nH]3)nc2c1 [Compound 7] 64.6

###

targetSystem: factor Xa (Homo sapiens, UniProt P00742)
Construct: chymotrypsin, factor Xa, factor VIIa, plasm kallikrein
Sequence (P00742 235-488 limits assumed): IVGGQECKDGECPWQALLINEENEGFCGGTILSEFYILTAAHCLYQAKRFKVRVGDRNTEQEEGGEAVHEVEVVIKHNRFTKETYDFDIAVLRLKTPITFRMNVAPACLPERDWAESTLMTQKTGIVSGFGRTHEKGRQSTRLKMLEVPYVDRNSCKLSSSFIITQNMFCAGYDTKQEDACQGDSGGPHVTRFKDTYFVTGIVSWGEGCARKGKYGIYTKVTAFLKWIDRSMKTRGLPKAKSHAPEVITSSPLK
Sequence (P00742 41-179 partner limits assumed): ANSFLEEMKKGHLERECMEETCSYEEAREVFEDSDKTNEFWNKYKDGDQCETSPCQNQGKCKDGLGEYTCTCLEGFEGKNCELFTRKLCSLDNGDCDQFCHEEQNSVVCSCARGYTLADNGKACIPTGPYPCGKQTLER
assayRemarks: In vitro enzyme inhibitor assay, factor Xa
Type: biochemical
experimentalContext: ambient zinc, no EDTA, read-out: Inhibition, (Ki, μM ± S.D.) [Zn]ambient
measuredEndpoint: Ki (µM)
Numbers only here, please. The scale is µM.

Fill in Ki for record `N=C(N)c1ccc2[nH]c(Cc3nc4ccccc4[nH]3)nc2c1` 0.04

###

targetSystem: activated protein C (Homo sapiens, UniProt P04070)
Sequence (P04070 212-461 limits assumed): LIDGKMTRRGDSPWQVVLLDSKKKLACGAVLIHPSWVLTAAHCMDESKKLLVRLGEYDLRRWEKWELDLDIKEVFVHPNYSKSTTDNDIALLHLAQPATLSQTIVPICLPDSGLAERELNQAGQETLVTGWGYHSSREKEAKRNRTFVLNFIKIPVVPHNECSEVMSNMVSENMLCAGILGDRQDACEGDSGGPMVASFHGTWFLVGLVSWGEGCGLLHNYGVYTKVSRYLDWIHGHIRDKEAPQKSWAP
Sequence (P04070 43-197 partner limits assumed): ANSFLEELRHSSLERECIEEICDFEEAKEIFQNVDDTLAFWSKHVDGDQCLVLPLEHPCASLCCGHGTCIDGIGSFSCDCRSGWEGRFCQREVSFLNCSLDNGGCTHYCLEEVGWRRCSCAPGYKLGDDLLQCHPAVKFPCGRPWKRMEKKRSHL
assayRemarks: In vitro enzyme inhibitor assay, activated protein C
Format: biochemical
experimentalContext: zinc removed, EDTA 1 mM, read-out: Inhibition, (Ki, μM ± S.D.) [Zn]removed
measuredEndpoint: Ki

Fill in Ki for record N=C(N)c1ccc2nc(-c3ccccn3)[nH]c2c1 [Compound 10, 5-amidino-2-pyrid-2-ylbenzimidazole] > 1000 µM

###

targetSystem: thrombin (Homo sapiens, UniProt P00734)
Construct: β-lactamase, plasmin, thrombin, trypsin, tryptase and urokinase
assayRemarks: In vitro enzyme inhibitor assay, thrombin
Assay type: biochemical
experimentalContext: ambient zinc, no EDTA, read-out: Inhibition, (Ki, μM ± S.D.) [Zn]ambient
measuredEndpoint: Ki (µM)
Numbers only here, please. The scale is µM.

Fill in Ki for record N=C(N)c1ccc2nc(-c3ccccn3)[nH]c2c1 [Compound 10, 5-amidino-2-pyrid-2-ylbenzimidazole] 45.5

###

targetSystem: urokinase (Homo sapiens)
assayRemarks: In vitro enzyme inhibitor assay, urokinase
Type: biochemical
experimentalContext: 150 μM zinc chloride, read-out: Inhibition, (Ki, μM ± S.D.) [Zn]modified
measuredEndpoint: Ki
Write the numeric value and append its unit.

Fill in Ki for record N=C(N)c1ccc2[nH]c(Cc3nc4ccccc4[nH]3)nc2c1 [Compound 4] 1.05 µM

###

targetSystem: human trypsin (Homo sapiens, UniProt P07477)
assayRemarks: In vitro enzyme inhibitor assay (Example 1), trypsin
Format: biochemical
experimentalContext: ambient zinc, assay medium without EDTA, read-out: Inhibition, (Ki, μM ± S.D.) [Zn]ambient
Overview of reported Ki across a group of compounds:
Numbers only here, please. The scale is µM.

{"compound": "O=C(O)c1ccc2nc(Cc3nc4ccccc4[nH]3)[nH]c2c1 [Compound 8]", "measuredValue": 1.3}
{"compound": "Cc1ccc2[nH]c(Cc3nc4cc(CN)ccc4[nH]3)nc2c1 [Compound 7]", "measuredValue": 808}
{"compound": "N=C(N)c1ccc2nc(-c3ccccn3)[nH]c2c1 [Compound 10, 5-amidino-2-pyrid-2-ylbenzimidazole]", "measuredValue": 748}

Then this compound:
Fill in Ki for record N=C(N)c1ccc2[nH]c(Cc3nc4ccccc4[nH]3)nc2c1 [Compound 4] 0.02

###

targetSystem: activated protein C (Homo sapiens, UniProt P04070)
assayRemarks: In vitro enzyme inhibitor assay, activated protein C
Assay type: biochemical
experimentalContext: 150 μM zinc chloride, read-out: Inhibition, (Ki, μM ± S.D.) [Zn]modified
measuredEndpoint: Ki (µM)
Numbers only here, please. The scale is µM.

Fill in Ki for record `N=C(N)c1ccc2nc(-c3ccccn3)[nH]c2c1` 3.8

###

targetSystem: chymotrypsin
assayRemarks: In vitro enzyme inhibitor assay, chymotrypsin
Type: biochemical
experimentalContext: zinc removed, EDTA 1 mM, read-out: Inhibition, (Ki, μM ± S.D.) [Zn]removed
measuredEndpoint: Ki (µM)
Numbers only here, please. The scale is µM.

Fill in Ki for record `N=C(N)c1ccc2nc(-c3ccccn3)[nH]c2c1` 702

###

targetSystem: tissue kallikrein (Homo sapiens)
Sequence (P06870 25-262, species assumed): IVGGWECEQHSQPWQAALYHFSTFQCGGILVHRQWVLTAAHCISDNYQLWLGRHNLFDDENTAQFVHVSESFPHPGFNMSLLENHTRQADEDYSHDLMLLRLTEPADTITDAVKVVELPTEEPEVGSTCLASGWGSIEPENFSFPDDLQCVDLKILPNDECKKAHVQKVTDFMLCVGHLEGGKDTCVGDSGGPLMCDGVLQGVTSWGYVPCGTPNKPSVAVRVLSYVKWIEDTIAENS
assayRemarks: In vitro enzyme inhibitor assay, tissue kallikrein
Assay type: biochemical
experimentalContext: zinc removed, EDTA 1 mM, read-out: Inhibition, (Ki, μM ± S.D.) [Zn]removed
measuredEndpoint: Ki (µM)
Numbers only here, please. The scale is µM.

Fill in Ki for record `N=C(N)c1ccc2[nH]c(Cc3nc4ccccc4[nH]3)nc2c1` 267

###

targetSystem: plasma kallikrein (Homo sapiens, UniProt P03952)
Sequence (P03952 20-638, species assumed): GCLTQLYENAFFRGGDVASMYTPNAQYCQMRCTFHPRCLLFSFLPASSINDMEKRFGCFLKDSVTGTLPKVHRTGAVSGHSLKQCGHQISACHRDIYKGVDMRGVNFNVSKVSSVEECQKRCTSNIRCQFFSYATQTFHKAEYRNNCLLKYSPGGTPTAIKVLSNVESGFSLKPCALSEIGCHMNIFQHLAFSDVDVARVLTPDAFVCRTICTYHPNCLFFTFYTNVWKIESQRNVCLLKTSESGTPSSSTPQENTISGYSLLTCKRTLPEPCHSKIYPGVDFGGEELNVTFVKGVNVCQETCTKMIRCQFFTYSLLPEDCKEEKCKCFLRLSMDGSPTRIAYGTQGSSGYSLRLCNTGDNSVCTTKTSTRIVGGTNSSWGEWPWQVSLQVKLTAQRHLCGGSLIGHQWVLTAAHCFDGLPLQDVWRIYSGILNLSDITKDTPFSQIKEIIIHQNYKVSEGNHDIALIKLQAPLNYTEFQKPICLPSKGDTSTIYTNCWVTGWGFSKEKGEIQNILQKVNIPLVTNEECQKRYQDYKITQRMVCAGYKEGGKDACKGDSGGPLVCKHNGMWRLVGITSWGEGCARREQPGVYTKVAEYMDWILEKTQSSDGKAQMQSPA
assayRemarks: In vitro enzyme inhibitor assay, plasma kallikrein
Assay type: biochemical
experimentalContext: 150 μM zinc chloride, read-out: Inhibition, (Ki, μM ± S.D.) [Zn]modified
measuredEndpoint: Ki (µM)
Numbers only here, please. The scale is µM.

Fill in Ki for record `N=C(N)c1ccc2[nH]c(Cc3nc4ccccc4[nH]3)nc2c1` 0.002

###

Overview of reported Ki across a group of compounds:
targetSystem: factor VIIa (Homo sapiens, UniProt P08709)
Construct: chymotrypsin, factor Xa, factor VIIa, plasm kallikrein
assayRemarks: In vitro enzyme inhibitor assay, factor VIIa
Format: biochemical
experimentalContext: 150 μM zinc chloride, read-out: Inhibition, (Ki, μM ± S.D.) [Zn]modified
Write the numeric value and append its unit.

{"structure": "N=C(N)c1ccc2nc(-c3ccccn3)[nH]c2c1", "Ki": "1.4 µM"}

Then this compound:
Enter Ki (test system factor VIIa (Homo sapiens, UniProt P08709)) for `N=C(N)c1ccc2[nH]c(Cc3nc4ccccc4[nH]3)nc2c1` 0.07 µM

###

assayRemarks: Solubility in synthetic mother liquor
Assay type: physicochemical
experimentalContext: aqueous buffer, 415 mg/ml MgSO4, 100 mM MES, pH 5.9, read-out: solubility, freshly dissolved in synthetic mother liquor
measuredEndpoint: solubility

Fill in solubility for record `N=C(N)c1ccc2nc(Cc3nc4ccc(C(=N)N)cc4[nH]3)[nH]c2c1` ~100 µM

###

assayRemarks: Solubility in synthetic mother liquor
Type: physicochemical
experimentalContext: aqueous buffer, 415 mg/ml MgSO4, 100 mM Tris, pH 8.2, read-out: solubility, freshly dissolved in synthetic mother liquor
measuredEndpoint: solubility

Fill in solubility for record `N=C(N)c1ccc2nc(Cc3nc4ccc(C(=N)N)cc4[nH]3)[nH]c2c1` ~100 µM

###

Overview of reported Ki across a group of compounds:
targetSystem: factor VIIa (Homo sapiens, UniProt P08709)
Construct: chymotrypsin, factor Xa, factor VIIa, plasm kallikrein
Sequence (P08709 213-466 limits assumed): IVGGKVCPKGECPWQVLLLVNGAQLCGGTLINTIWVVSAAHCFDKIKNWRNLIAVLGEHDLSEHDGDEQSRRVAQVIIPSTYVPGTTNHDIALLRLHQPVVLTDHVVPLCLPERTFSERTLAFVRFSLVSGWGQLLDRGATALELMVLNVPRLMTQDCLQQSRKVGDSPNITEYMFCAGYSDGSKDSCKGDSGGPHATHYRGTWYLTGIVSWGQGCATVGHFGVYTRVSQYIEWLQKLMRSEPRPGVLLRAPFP
Sequence (P08709 61-212 partner limits assumed): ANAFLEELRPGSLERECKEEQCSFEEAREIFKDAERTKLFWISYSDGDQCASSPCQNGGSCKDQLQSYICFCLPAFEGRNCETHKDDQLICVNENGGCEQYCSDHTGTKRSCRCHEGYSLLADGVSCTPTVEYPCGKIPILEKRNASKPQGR
assayRemarks: In vitro enzyme inhibitor assay, factor VIIa
Type: biochemical
experimentalContext: ambient zinc, no EDTA, read-out: Inhibition, (Ki, μM ± S.D.) [Zn]ambient
Numbers only here, please. The scale is µM.

Fill in Ki for record `N=C(N)c1ccc2[nH]c(Cc3nc4ccccc4[nH]3)nc2c1` 10

Fill in Ki for record `N=C(N)c1ccc2nc(-c3ccccn3)[nH]c2c1` 106
